Listing of entries alongside the reported TGI.
system: T-47D breast; assay: NCI tumour cell line growth inhibition, 48 h

Param item = FC(F)(F)c1cccc(-c2nc3nc(Cl)c(Cl)nc3[nH]2)c1 ; retrieve measured TGI.
12.9 µM

Param item = CC(=O)c1c(-c2cccc3ccccc23)c(C#N)c(=S)n(C2OC(CO)C(O)C(O)C2O)c1C (stereo not given) ; retrieve measured TGI.
> 100 µM

###

Listing of entries alongside the reported log10 of TGI.
test system: HT29 colon; experiment: NCI tumour cell line growth inhibition, 48 h
Reminder: these figures are log10 of reported TGI, in µM before transformation.

Param item = c1ccc(/C(=N/Nc2nc3ccccc3s2)C2CCCCC2)nc1 ; retrieve measured log10 of TGI.
1.21

Param item = Nc1nc2ccc(-c3nc4ccc5[nH]ncc5c4c4c3CCC4)cc2s1 ; retrieve measured log10 of TGI.
1.30

Param item = CN(C)CCNc1ccc2c(=O)n(CCN(C)C)c(=O)n3c4ccc(O)cc4c(=O)c1c23 ; retrieve measured log10 of TGI.
-0.64

Param item = O=C(/C=C/c1ccccc1)Oc1cccc2cccnc12 ; retrieve measured log10 of TGI.
1.47

Param item = Nc1n(CC(=O)c2ccccc2)nc2sc(-c3ccccc3)n[n+]12 ; retrieve measured log10 of TGI.
1.71

Param item = CCC1(O)C(=O)OCc2c1cc1n(c2=O)Cc2cc3ccccc3nc2-1 (stereo not given) ; retrieve measured log10 of TGI.
-0.40
